Assay: in vivo
Conditions: dog, iv, 5 mg/kg
Description: Half life in dog at 5 mg/kg, iv
Measurement Kind: half-life (h)
Quick reminder: number only, in h, skip the unit.

Lookup: Data request, read-out half-life, for CCOc1ccccc1-c1ccc(N2CCN(C(=O)C3(C(F)(F)F)CCC3)C[C@H]2CC)c(C(=O)N[C@@H]2CN3CCC2CC3)n1
Found: 9.55

---

Assay: in vivo
Details: rat, iv, 5 mg/kg
Description: Half life in rat at 5 mg/kg, iv
Measurement Kind: half-life (h)
Quick reminder: number only, in h, skip the unit.

Lookup: Data request, read-out half-life, for CCOc1ccccc1-c1ccc(N2CCN(C(=O)C3(C(F)(F)F)CCC3)C[C@H]2CC)c(C(=O)N[C@@H]2CN3CCC2CC3)n1 [ATUMELNANT]
Found: 2.73

---

Assay: in vivo
Conditions: Sprague-Dawley, rat, plasma, po, 30 mg/kg
Description: Drug concentration in Sprague-Dawley rat plasma at 30 mg/kg, po administered as single dose and stimulated with ACTH for 24 hrs measured after 0.5 hrs
Measurement Kind: concentration at 0.5 h (ng/mL)
Quick reminder: number only, in ng/mL, skip the unit.

Lookup: Data request, read-out concentration at 0.5 h, for CCOc1ccccc1-c1ccc(N2CCN(C(=O)C3(C(F)(F)F)CCC3)C[C@H]2CC)c(C(=O)N[C@@H]2CN3CCC2CC3)n1 [ATUMELNANT]
Found: 20

---

Target: Melanocortin receptor 5 (Homo sapiens, UniProt P33032)
Sequence (P33032 whole entry): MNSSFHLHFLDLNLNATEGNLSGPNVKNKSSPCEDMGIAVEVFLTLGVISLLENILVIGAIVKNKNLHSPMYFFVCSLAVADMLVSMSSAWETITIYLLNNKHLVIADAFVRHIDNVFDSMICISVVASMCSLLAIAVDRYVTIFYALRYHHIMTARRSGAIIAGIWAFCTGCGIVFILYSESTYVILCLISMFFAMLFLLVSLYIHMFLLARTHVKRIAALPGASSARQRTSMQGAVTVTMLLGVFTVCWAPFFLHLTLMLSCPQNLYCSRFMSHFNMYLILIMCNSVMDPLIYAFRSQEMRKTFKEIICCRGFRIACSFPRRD
Measurement Kind: IC50

Lookup: What measured IC50 is associated with CCOc1ccccc1-c1ccc(N2CCN(C(=O)C3(C(F)(F)F)CCC3)C[C@H]2CC)c(C(=O)N[C@@H]2CN3CCC2CC3)n1 on Melanocortin receptor 5 (Homo sapiens, UniProt P33032)?
Found: > 10 µM

---

Experiment: in vitro
Conditions: dog, MDCK
Description: Apparent permeability in MDCK cells
Measurement Kind: Papp (×10⁻⁶ cm/s)
Quick reminder: number only, in ×10⁻⁶ cm/s, skip the unit.

Lookup: Data request, read-out Papp, for CCOc1ccccc1-c1ccc(N2CCN(C(=O)C3(C(F)(F)F)CCC3)C[C@H]2CC)c(C(=O)N[C@@H]2CN3CCC2CC3)n1
Found: 1.9

---

Assay: in vivo
Settings: Sprague-Dawley, rat, plasma, po, 30 mg/kg
Description: Drug concentration in Sprague-Dawley rat plasma at 30 mg/kg, po administered as single dose and stimulated with ACTH for 24 hrs measured after 1.5 hrs
Measurement Kind: concentration at […] (ng/mL)
Quick reminder: number only, in ng/mL, skip the unit.

Lookup: Data request, read-out concentration at […], for CCOc1ccccc1-c1ccc(N2CCN(C(=O)C3(C(F)(F)F)CCC3)C[C@H]2CC)c(C(=O)N[C@@H]2CN3CCC2CC3)n1 [ATUMELNANT]
Found: 14.1

---

Experiment: in vitro
Conditions: human, liver microsomes
Description: Stability in human liver microsomes assessed as half life
Hi, to clarify the labels: yes covers half-life from 1 h upward, no covers anything below 1 h.

Lookup: Reported half-life at or above 1 h? CCOc1ccccc1-c1ccc(N2CCN(C(=O)C3(C(F)(F)F)CCC3)C[C@H]2CC)c(C(=O)N[C@@H]2CCN(C)C2)n1
Found: yes

Lookup: Reported half-life at or above 1 h? CCOc1ncccc1-c1ccc(N2CCN(C(=O)c3ccc(Cl)cc3C(F)(F)F)C[C@H]2CC)c(C(=O)N[C@@H]2CCNC2)n1
Found: yes

Lookup: Reported half-life at or above 1 h? CCOc1ncccc1-c1ccc(N2CCN(C(=O)c3ccc(Cl)cc3C(F)(F)F)C[C@H]2CC)c(C(=O)NCCN(C)C)n1
Found: no

Lookup: Reported half-life at or above 1 h? CCOc1ccccc1-c1ccc(N2CCN(C(=O)C3(C(F)(F)F)CCC3)C[C@H]2CC)c(C(=O)N[C@@H]2CN3CCC2CC3)n1
Found: yes

Lookup: Reported half-life at or above 1 h? CCOc1ncccc1-c1ccc(N2CCN(C(=O)C3(C(F)(F)F)CCC3)C[C@H]2CC)c(C(=O)N[C@@H]2CCN(C)C2)n1
Found: yes

Lookup: Reported half-life at or above 1 h? CCOc1ncccc1-c1ccc(N2CCN(C(=O)C34CCC(C(F)(F)F)(CC3)CC4)C[C@H]2CC)c(C(=O)N[C@@H]2CCN(C)C2)n1
Found: yes

Lookup: Reported half-life at or above 1 h? CCOc1ncccc1-c1ccc(N2CCN(C(=O)C3(C(F)(F)F)CCCC3)C[C@H]2CC)c(C(=O)N[C@@H]2CCN(C)C2)n1
Found: no

Lookup: Reported half-life at or above 1 h? CCOc1ncccc1-c1ccc(N2CCN(C(=O)c3ccc(Cl)cc3C(F)(F)F)C[C@H]2CC)c(C(=O)N[C@@H]2CCN(C)C2)n1
Found: no

---

Target: L-type calcium channel (Homo sapiens, UniProt O60840+Q01668+Q13698+Q13936)
Test: in vitro
Description: Inhibition of L-type calcium channel (unknown origin) at 10 uM relative to control
Measurement Kind: inhibition at 10 µM

Lookup: Data request, read-out inhibition at 10 µM, for CCOc1ccccc1-c1ccc(N2CCN(C(=O)C3(C(F)(F)F)CCC3)C[C@H]2CC)c(C(=O)N[C@@H]2CN3CCC2CC3)n1 [ATUMELNANT]
Found: > 70%

---

Assay: in vivo
Settings: rat, po, 5 mg/kg
Description: Oral bioavailability in rat at 5 mg/kg
Measurement Kind: bioavailability

Lookup: Data request, read-out bioavailability, for CCOc1ccccc1-c1ccc(N2CCN(C(=O)C3(C(F)(F)F)CCC3)C[C@H]2CC)c(C(=O)N[C@@H]2CN3CCC2CC3)n1 [ATUMELNANT]
Found: 47%

---

Assay: in vivo
Settings: Sprague-Dawley, rat, plasma, po, 3 mg/kg
Description: Drug concentration in Sprague-Dawley rat plasma at 3 mg/kg, po administered as single dose and stimulated with ACTH for 1 hr measured after 1.5 hrs
Measurement Kind: concentration at […]

Lookup: Data request, read-out concentration at […], for CCOc1ccccc1-c1ccc(N2CCN(C(=O)C3(C(F)(F)F)CCC3)C[C@H]2CC)c(C(=O)N[C@@H]2CN3CCC2CC3)n1 [ATUMELNANT]
Found: 93.9 ng/mL

---

Target: UniProt:P41968
Sequence (P41968 whole entry): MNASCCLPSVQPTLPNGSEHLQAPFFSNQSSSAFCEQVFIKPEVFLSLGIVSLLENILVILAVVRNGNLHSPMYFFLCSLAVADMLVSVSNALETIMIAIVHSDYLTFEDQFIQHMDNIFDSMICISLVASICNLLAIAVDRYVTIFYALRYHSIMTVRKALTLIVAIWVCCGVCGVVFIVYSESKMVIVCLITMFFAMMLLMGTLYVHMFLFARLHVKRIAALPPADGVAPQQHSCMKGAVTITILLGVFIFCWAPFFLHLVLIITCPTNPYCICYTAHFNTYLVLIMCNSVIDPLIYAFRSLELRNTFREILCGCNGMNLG
pIC50: −log10 of the molar value.
Measurement Kind: pIC50

Lookup: Data request, read-out pIC50, for CCOc1ccccc1-c1ccc(N2CCN(C(=O)C3(C(F)(F)F)CCC3)C[C@H]2CC)c(C(=O)N[C@@H]2CN3CCC2CC3)n1 [ATUMELNANT]
Found: < 5.00

---

Test: in vivo
Conditions: Sprague-Dawley, rat, plasma, po, 3 mg/kg
Description: Drug concentration in Sprague-Dawley rat plasma at 3 mg/kg, po administered as single dose and stimulated with ACTH for 4 hrs measured after 1.5 hrs
Measurement Kind: concentration at […] (ng/mL)
Quick reminder: number only, in ng/mL, skip the unit.

Lookup: Data request, read-out concentration at […], for CCOc1ccccc1-c1ccc(N2CCN(C(=O)C3(C(F)(F)F)CCC3)C[C@H]2CC)c(C(=O)N[C@@H]2CN3CCC2CC3)n1 [ATUMELNANT]
Found: 87.5

---

Provide the recorded AUC(0-t) for the entries that follow.
Test: in vivo
Details: rat, po, 10 mg/kg
Description: AUClast in rat at 10 mg/kg, po
Quick reminder: number only, in µM·h, skip the unit.

Lookup: Data request, read-out AUC(0-t), for CCOc1ncccc1-c1ccc(N2CCN(C(=O)c3ccc(Cl)cc3C(F)(F)F)C[C@H]2CC)c(C(=O)NCCN(C)C)n1
Found: 0.349

Lookup: Data request, read-out AUC(0-t), for CCOc1ncccc1-c1ccc(N2CCN(C(=O)c3ccc(Cl)cc3C(F)(F)F)C[C@H]2CC)c(C(=O)N[C@@H]2CCN(C)C2)n1
Found: 1.44

Lookup: Data request, read-out AUC(0-t), for CCOc1ncccc1-c1ccc(N2CCN(C(=O)c3ccc(Cl)cc3C(F)(F)F)C[C@H]2CC)c(C(=O)N[C@@H]2CCNC2)n1
Found: 0.279

---

Experiment: in vivo
Conditions: rat, po, 10 mg/kg
Measurement Kind: AUC(0-t) (nM·h)
Quick reminder: number only, in nM·h, skip the unit.

Lookup: Data request, read-out AUC(0-t), for CCOc1ccccc1-c1ccc(N2CCN(C(=O)c3ccc(Cl)cc3Cl)C[C@H]2CC)c(C(=O)NCCN)c1
Found: 8.1

---

Assay: in vivo
Settings: Sprague-Dawley, rat, plasma, po, 30 mg/kg
Description: Drug concentration in Sprague-Dawley rat plasma at 30 mg/kg, po administered as single dose and stimulated with ACTH for 1 hr measured after 0.5 hr
Measurement Kind: concentration at 0.5 h

Lookup: Data request, read-out concentration at 0.5 h, for CCOc1ccccc1-c1ccc(N2CCN(C(=O)C3(C(F)(F)F)CCC3)C[C@H]2CC)c(C(=O)N[C@@H]2CN3CCC2CC3)n1 [ATUMELNANT]
Found: 1140 ng/mL

---

Experiment: in vitro
Conditions: dog, plasma
Description: Plasma protein binding in dog at 1 uM
Measurement Kind: fraction unbound at 1 µM
Answer as a number with no unit attached.

Lookup: Data request, read-out fraction unbound at 1 µM, for CCOc1ccccc1-c1ccc(N2CCN(C(=O)C3(C(F)(F)F)CCC3)C[C@H]2CC)c(C(=O)N[C@@H]2CN3CCC2CC3)n1 [ATUMELNANT]
Found: 0.132

---

Test: in vivo
Details: rat, po, 5 mg/kg
Description: Cmax in rat at 5 mg/kg, po
Measurement Kind: Cmax
The answer should read as a number with its unit following.

Lookup: Data request, read-out Cmax, for CCOc1ccccc1-c1ccc(N2CCN(C(=O)C3(C(F)(F)F)CCC3)C[C@H]2CC)c(C(=O)N[C@@H]2CN3CCC2CC3)n1
Found: 1220 nM

---

Assay: in vivo
Conditions: dog, po, 5 mg/kg
Description: AUClast in dog at 5 mg/kg, po
Measurement Kind: AUC(0-t) (µM·h)
Quick reminder: number only, in µM·h, skip the unit.

Lookup: Data request, read-out AUC(0-t), for CCOc1ccccc1-c1ccc(N2CCN(C(=O)C3(C(F)(F)F)CCC3)C[C@H]2CC)c(C(=O)N[C@@H]2CN3CCC2CC3)n1 [ATUMELNANT]
Found: 4.97
